TARGET_OF_ASSAY: androgen receptor (Homo sapiens, UniProt P10275)
Sequence (P10275 whole entry, species assumed): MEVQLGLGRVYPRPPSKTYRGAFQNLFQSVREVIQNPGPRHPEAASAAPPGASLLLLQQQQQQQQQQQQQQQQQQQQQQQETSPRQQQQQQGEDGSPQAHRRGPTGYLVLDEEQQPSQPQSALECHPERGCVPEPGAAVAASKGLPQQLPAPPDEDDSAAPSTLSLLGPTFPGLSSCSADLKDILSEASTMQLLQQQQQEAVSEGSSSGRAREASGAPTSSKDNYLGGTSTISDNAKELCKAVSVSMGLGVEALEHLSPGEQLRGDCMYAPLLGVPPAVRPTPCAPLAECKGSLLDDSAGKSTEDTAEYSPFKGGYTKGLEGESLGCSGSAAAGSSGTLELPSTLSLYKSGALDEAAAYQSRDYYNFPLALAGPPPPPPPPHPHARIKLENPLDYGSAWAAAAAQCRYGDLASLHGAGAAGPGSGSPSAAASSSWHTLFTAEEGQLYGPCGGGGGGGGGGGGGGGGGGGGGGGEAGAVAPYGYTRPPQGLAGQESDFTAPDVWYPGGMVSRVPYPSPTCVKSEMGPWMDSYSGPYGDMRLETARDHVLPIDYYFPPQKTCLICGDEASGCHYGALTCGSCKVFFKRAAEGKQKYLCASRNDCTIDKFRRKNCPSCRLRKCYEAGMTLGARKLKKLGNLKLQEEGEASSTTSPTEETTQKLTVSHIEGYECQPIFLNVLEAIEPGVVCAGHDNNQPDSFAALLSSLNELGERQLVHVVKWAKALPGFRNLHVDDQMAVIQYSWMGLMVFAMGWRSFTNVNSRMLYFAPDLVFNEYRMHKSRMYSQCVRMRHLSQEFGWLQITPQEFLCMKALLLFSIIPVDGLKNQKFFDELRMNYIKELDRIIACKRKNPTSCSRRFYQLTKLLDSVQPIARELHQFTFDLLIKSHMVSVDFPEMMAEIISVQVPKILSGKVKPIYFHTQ
Format: cell-based
Parameters: expressed in transfected cells
ASSAY_SETUP: ligand RU486
QUANTITY_NAME: Mammalian Cell Specificity Graph (FIG. 4): RU486 (Relative Light Units)

                                 substance  experimental_result
0                HPTHSSRLWELLMEATPTM [D30]               0.8461
1  EFHSRLRVEVVSWGIGSTCSQANSGRISYDL* [B8H3]                3.879
2          EFQQCMCAEVKSWLGGSLDLOPS* [B8E9]              10.1916
3         EFRSSVFEQMYLCTGGSLDLOPS* [B5G11]               0.1051

====

TARGET_OF_ASSAY: androgen receptor (Homo sapiens)
EXPERIMENTAL_DETAILS: Yeast two-hybrid screening of unbiased X15 peptide library, ligand-induced β-galactosidase activity (FIG. 3, Table 503)
Assay type: cell-based
Design: expressed in transfected cells; host or cells: Saccharomyces cerevisiae PJ69-4α
ASSAY_SETUP: ligand CPA
Think of 0.6 as a floor: if Yeast Specificity Graph (FIG. 3): CPA stands on it or above, it is MET; beneath it, NOT MET.

In [3]: df
Out[3]:
                                 substance  discrete_label
0          EFQQCMCAEVKSWLGGSLDLOPS* [B8E9]         NOT MET
1           EFRQSFVSEILGGGWLPLDLOPS [M2H3]             MET
2  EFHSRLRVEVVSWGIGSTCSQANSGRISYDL* [B8H3]         NOT MET
3         EFRSSVFEQMYLCTGGSLDLOPS* [B5G11]             MET
4        EFRFPFHEMVREWESMGLERVRYAEP [M4D1]         NOT MET
5          EFVNWDAVVPWSELVALLDLOPS [B8A10]         NOT MET
